Examples of molecules with documented TGI follow.
Test system: CCRF-CEM leukemia
Experiment: NCI tumour cell line growth inhibition, 48 h

# molecule, TGI
measured = [
    ("Cc1cccc(C)c1NC(=O)C(=O)Nn1c(NN)nc2ccccc2c1=O", "> 100 µM"),
    ("COC(=O)C1(C)C=CC(=O)C2(C)C1C(O)C1OC3CC(c4ccoc4)C(C)=C3C1(C)C2CC(=O)O (stereo unspecified)", "> 100 µM"),
    ("O=C(NNC(=S)NC1CCCCC1)c1csc(NC(=S)NC2CCCCC2)n1", "> 100 µM"),
    ("CC(=O)c1cc2ccccc2oc1=O", "> 100 µM"),
    ("NC(N)=Nc1ccc(CC(N)C(=O)O)cc1 (stereo unspecified)", "> 12.5 µM"),
]

Ask | Requested field: TGI. Item: `O=c1c(O)c(-c2cc(O)c(O)c(O)c2)oc2cc(O)cc(O)c12`
Reply | > 100 µM

Where do the numbers come from? From PubChem BioAssay (NCI).
